- System: SB.mhdgc-1
- protocol.details: AC50 for growth inhibition (viability) (log10 M); higher = less potent
- condition.parameters: SB.mhdgc-1 (hereditary c.1380delA CDH1 gastric cancer)
value.type: AC50 for growth inhibition (log10 M)

>>> test_result("OC1=CC=C(C=C1)\\C2=C\\C(=O)C3=C(O2)C=C(O)C=C3O [Apigenin]")
-5.08
>>> test_result("Cn1cc(-c2cnn3c(N)c(Br)c([C@H]4CCCNC4)nc23)cn1")
-5.88
>>> test_result("CC(=O)C\\1=C(/C)C2=CN=C(NC3=CC=C(C=N3)N4CCNCC4)N=C2N(C5CCCC5)C1=O")
-4.93
>>> test_result("C[C@H]1CN(C[C@@H](C)O1)CC(=O)NC2=CC=C3SC4=C(CC3=C2)C=CC=C4\\C5=C\\C(=O)\\C=C(/O5)N6CCOCC6")
-5.23

---

- System: SB.msgc-1
- protocol.details: viability at highest tested concentration (MAXR) relative to DMSO; higher = less cytotoxic
- condition.parameters: SB.msgc-1 (sporadic gastric cancer)
Counter-ions that a name gives are not always drawn.
As shown below, each of these compounds has a reported viability value.
value.type: viability (%)

>>> test_result("C=C1C(=O)O[C@@H]2[C@H]3O[C@]3(C)CC/C=C(\\C)CC[C@@H]12 [Parthenolide] (top concentration 46.0829 µM)")
0.8
>>> test_result("NC\\1=N\\C(=O)N(\\C=N1)[C@H]2C[C@H](O)[C@@H](CO)O2 [Decitabine] (top concentration 46.0829 µM)")
98.7
>>> test_result("O=C(Oc1ccc([N+](=O)[O-])cc1)N1CCN(Cc2cccc(Oc3ccccc3)c2)CC1 [JZL-195] (top concentration 46.0829 µM)")
37.7
>>> test_result("Nc1ncnc2c1c(-c1cccc(OCc3ccccc3)c1)cn2C1CC(CN2CCCC2)C1 (configuration not stated) [ADW-742] (top concentration 46.0829 µM)")
51
>>> test_result("OCCN(CCO)c1nc(N2CCCCC2)c2nc(N(CCO)CCO)nc(N3CCCCC3)c2n1 [Dipyridamole] (top concentration 46.0829 µM)")
19.4
>>> test_result("COc1cc(OC)c(/C=C/[S+](=O)([O-])Cc2ccc(OC)c(NCC(=O)[O][Na])c2)c(OC)c1 (top concentration 46.0829 µM)")
38
>>> test_result("Cc1cccc(C#Cc2ccccc2)n1 [MPEP] (top concentration 46.0829 µM)")
96.5
>>> test_result("CCCCCCCCCCCCCCCCCCCCCCO [Docosanol] (top concentration 46.0829 µM)")
131
>>> test_result("CCC(C1CCC(C)C(O1)C(C)C(O)C(C)C(=O)C(CC)C2OC\\3(O[C@]4(CC[C@@](C)(O4)C5CC[C@@](O)(CC)C(C)O5)C(O)\\C=C3)C(C)CC2C)C([O-])=O (some centres not stated) [Salinomycin] (top concentration 46.0829 µM)")
23.7
>>> test_result("CN1CCN2c3ccccc3Cc3ccccc3C2C1 (configuration not stated) [Mianserin hydrochloride] (top concentration 46.0829 µM)")
94
>>> test_result("N#Cc1cc(NC(=O)Nc2nnc(-c3ccncc3)s2)ccc1-c1cn[nH]c1 (top concentration 46.0829 µM)")
89
>>> test_result("CCC[C@@H](NC(=O)[C@@H]1[C@H]2CCC[C@H]2CN1C(=O)[C@@H](NC(=O)[C@@H](NC(=O)c1cnccn1)C1CCCCC1)C(C)(C)C)C(=O)C(=O)NC1CC1 [Telaprevir] (top concentration 46.0829 µM)")
71.7

---

As shown below, each of these compounds has a reported area under the dose-response curve value.
- System: SB.mhdgc-1
- protocol.details: area under the dose-response curve of % viability (trapezoidal, 11 doses) (% viability x log10 concentration); higher = less cytotoxic
- condition.parameters: SB.mhdgc-1 (hereditary c.1380delA CDH1 gastric cancer)
Structures can show the parent of a compound that is named as a salt.
value.type: area under the dose-response curve

>>> test_result("CCC(C)(Oc1ccc(C2(c3ccc(OC(C)(CC)C(=O)O)cc3)CCCCC2)cc1)C(=O)O (configuration not stated) [Clinofibrate] (top concentration 46.0829 µM)")
581
>>> test_result("CNC[C@H](O)[C@@H](O)[C@H](O)[C@H](O)CO [Meglumine] (top concentration 46.0829 µM)")
556
>>> test_result("C[S+]([O-])(=O)C1=CC=C(C=C1)C/2=C(/C(=O)OC2)C3=CC=CC=C3 [Rofecoxib] (top concentration 46.0829 µM)")
555
>>> test_result("COC(=O)CCC1=C(C)C2=CC3=NC(=CC4=C(C)C(=C([NH]4)C=C\\5N=C(C=C1[NH]2)\\C(=C5C)CCC(O)=O)C=C)\\C6=C\\C=C(/[C@@H](C(=O)OC)[C@@]36C)C(=O)OC [Verteporfin] (top concentration 46.0829 µM)")
418
>>> test_result("COc1cc(/C=C/C(=O)O)ccc1O [Fumalic acid] (top concentration 46.0829 µM)")
583
>>> test_result("OCc1ccccc1O[C@@H]1O[C@H](CO)[C@@H](O)[C@H](O)[C@H]1O [Salicin] (top concentration 46.0829 µM)")
509
>>> test_result("Clc1ccccc1CN1CCc2sccc2C1 [Ticlopidine hydrochloride] (top concentration 46.0829 µM)")
536
>>> test_result("NCCCC(O)(P(=O)(O)O)P(=O)(O)O.O.O.O.[Na+] [Alendronate] (top concentration 46.0829 µM)")
500
>>> test_result("CCCCCCCCCCCCCCCC(=O)OC[C@@H](NC(=O)C(Cl)Cl)[C@H](O)c1ccc([N+](=O)[O-])cc1 [Chloramphenicol Palmitate] (top concentration 46.0829 µM)")
496
>>> test_result("C=CC(=O)Nc1cccc(Sc2nc(Nc3ccc(N4CCN(C)CC4)cc3)ncc2Cl)c1 [WZ-8040] (top concentration 46.0829 µM)")
473
>>> test_result("COC(=O)C1C2CC3c4[nH]c5cc(OC)ccc5c4CCN3CC2CC(OC(=O)c2cc(OC)c(OC)c(OC)c2)C1OC (configuration not stated) [Reserpine] (top concentration 46.0829 µM)")
418
>>> test_result("CCCCc1oc2ccccc2c1C(=O)c1cc(I)c(OCCN(CC)CC)c(I)c1 [Amiodarone] (top concentration 46.0829 µM)")
462

---

- Tested on: SB.mhdgc-1
- protocol.details: viability at highest tested concentration (MAXR) relative to DMSO; higher = less cytotoxic
- condition.parameters: SB.mhdgc-1 (hereditary c.1380delA CDH1 gastric cancer)
Structures can show the parent of a compound that is named as a salt.
value.type: viability (%)

>>> test_result("CN1CCN(CC1)C2=CC3=C([NH]C(=N3)C/4=C(\\N)C5=C(F)C=CC=C5NC4=O)C=C2 [Dovitinib] (top concentration 46.0829 µM)")
17
>>> test_result("Cn1cnc(-c2cc3nccc(Oc4ccc(NC(=S)NC(=O)Cc5ccccc5)cc4F)c3s2)c1 [MGCD-265] (top concentration 46.0829 µM)")
56.2
>>> test_result("CCOc1cc(C(=O)Nc2ccc(Cl)c(-c3nc4ccccc4[nH]3)c2)cc(OCC)c1OCC [SANT-2] (top concentration 46.0829 µM)")
40.2
>>> test_result("O=C1CCC(N2C(=O)c3ccccc3C2=O)C(=O)N1 (configuration not stated) [Thalidomide] (top concentration 46.0829 µM)")
149
>>> test_result("CCOC(=O)/C=C/[C@H](C[C@@H]1CCNC1=O)NC(=O)[C@@H](CC(=O)[C@@H](NC(=O)c1cc(C)on1)C(C)C)Cc1ccc(F)cc1 [Rupintrivir] (top concentration 46.0829 µM)")
90.8
>>> test_result("C[S+](=O)([O-])Nc1ccc([N+](=O)[O-])cc1Oc1ccccc1 [Nimesulide] (top concentration 46.0829 µM)")
87.3
>>> test_result("CC(C)c1ccc(Cn2ccc3c4c(N)nc(NC5CC5)nc4ccc32)cc1 (top concentration 46.0829 µM)")
4.42
>>> test_result("CC(C)(C)NCC(O)c1ccc(O)c(CO)c1 (configuration not stated) [Salbutamol sulfate] (top concentration 46.0829 µM)")
86.1
>>> test_result("CN(C)c1ccc(Nc2nc(N)n(C(=O)c3c(F)cccc3F)n2)cc1 (top concentration 46.0829 µM)")
49.4
>>> test_result("Cc1ccc(NC(=O)C2(c3ccc4c(c3)OC(F)(F)O4)CC2)nc1-c1cccc(C(=O)O)c1 [Lumacaftor] (top concentration 46.0829 µM)")
37.7
>>> test_result("OC1=C(C=CC=C1)C2=CC=C(C=C2)C3=CSC4=C3C(=C(/C#N)C(=O)N4)/O (top concentration 46.0829 µM)")
22.3
>>> test_result("Cc1ccc(C(=O)c2cc(O)c(O)c([N+](=O)[O-])c2)cc1 [Tolcapone] (top concentration 46.0829 µM)")
40.4

---

- Test system: SB.mhdgc-1
- protocol.details: viability at highest tested concentration (MAXR) relative to DMSO; higher = less cytotoxic
- condition.parameters: SB.mhdgc-1 (hereditary c.1380delA CDH1 gastric cancer)
Values of viability strictly less than 80% map to met, and values of at least 80% map to not met.

>>> group("CCOC(=O)c1ncn2c1CN(C)C(=O)c1cc(F)ccc1-2 [Flumazenil] (top concentration 46.0829 µM)")
"met"
>>> group("CC(=O)[C@H]1CC[C@H]2[C@@H]3CCC4=CC(=O)CC[C@]4(C)[C@H]3CC[C@]12C [Progesterone] (top concentration 46.0829 µM)")
"met"
>>> group("C[C@@H]1[C@H]\\2[C@H](O)[C@H]3[C@H](N(C)C)\\C(=C(C(N)=O)/C(=O)[C@@]3(O)\\C(=C2C(=O)C4=C(O)C=CC=C14)O)O [Doxycycline] (top concentration 46.0829 µM)")
"not met"
>>> group("O=C(NNC(=O)c1ccc(CN[S+](=O)([O-])c2ccc(F)c(Cl)c2)cc1)c1ccccc1 [TCN-201] (top concentration 46.0829 µM)")
"not met"
>>> group("O=C(NC1CCNCC1)c1n[nH]cc1NC(=O)c1c(Cl)cccc1Cl [AT-7519] (top concentration 46.0829 µM)")
"met"
>>> group("N[C@@H](CC(=O)N1CCn2c(nnc2C(F)(F)F)C1)Cc1cc(F)c(F)cc1F [Sitagliptin] (top concentration 46.0829 µM)")
"not met"
>>> group("Oc1cccc(-c2nc(N3CCOCC3)c3oc4ncccc4c3n2)c1 [PI-103] (top concentration 92.1659 µM)")
"met"
>>> group("CC[C@H]1OC(=O)[C@H](C)[C@@H](O[C@H]2C[C@@](C)(OC)[C@@H](O)[C@H](C)O2)[C@H](C)[C@@H](O[C@@H]2O[C@H](C)C[C@H](N(C)C)[C@H]2O)[C@](C)(O)C[C@@H](C)CN(C)[C@H](C)[C@@H](O)[C@]1(C)O [Azithromycin (AZ)] (top concentration 46.0829 µM)")
"met"
>>> group("COc1ccc2c(OCc3nnc4ccc(-c5ccccc5)nn34)ccnc2c1 [AMG-208] (top concentration 46.0829 µM)")
"not met"
>>> group("CO[C@@H](C(=O)N1Cc2[nH]nc(NC(=O)c3ccc(N4CCN(C)CC4)cc3)c2C1)c1ccccc1 [Danusertib] (top concentration 46.0829 µM)")
"met"
>>> group("CC1=C(C)C2=C(S1)[N]3C(=NN=C3[C@H](CC(=O)OC(C)(C)C)/N=C2/C4=CC=C(Cl)C=C4)C [JQ1] (top concentration 46.0829 µM)")
"met"
